Consider the following compounds; for each one, report its melting point.

I would be grateful if you could share the reported melting point for C[C@]12CC[C@@H](O)C[C@@H]1CCC1C3CCC4CCC(=O)C[C@@]43CCC12 (some centres unmarked) [Compound 4a] .
185 to 186 °C

I would be grateful if you could share the reported melting point for C[C@]12CC[C@@H](O)C[C@@H]1CCC1C3CC[C@@H]4C(=O)CCC[C@]34CCC12 (some centres unmarked) [Compound 2a] .
200 to 202 °C

I would be grateful if you could share the reported melting point for C[C@]12CC[C@@H](O)C[C@@H]1CCC1C3CC[C@@H]4[C@H](C#N)CCC[C@]34CCC12 (some centres unmarked) [Compound 39] .
213 to 214 °C

I would be grateful if you could share the reported melting point for C[C@]12CC[C@@H](O)C[C@@H]1CCC1C3CC[C@@H]4CCC=C[C@]34CCC12 (some centres unmarked) [Compound 61] .
166.5 to 169 °C

I would be grateful if you could share the reported melting point for C[C@]12CC[C@@H](O)C[C@@H]1CCC1C3CC[C@@H]4[C@@]5(CCC[C@]34CCC12)CO5 (some centres unmarked) [Compound 73] .
186 to 192 °C (dec.)

I would be grateful if you could share the reported melting point for CC12CCC(O)CC1CCC1C2CCC23CC=CC(=O)C2CCC13 (centres unmarked) [Compound 11a] .
230 to 232 °C

I would be grateful if you could share the reported melting point for C[C@]12CC[C@@H](O)C[C@@H]1CCC1C3CC[C@@H]4CC[C@@H](C#N)C[C@]34CCC12 (some centres unmarked) [Compound 49] .
182 to 183 °C

I would be grateful if you could share the reported melting point for CC12CCC(O)CC1CCC1C2CCC23CCC=CC2CCC13 (centres unmarked) [Compound 13b] .
168 to 169 °C

Cited source for all entries: patent US7781421B2
